Tested on: NCI-H226
Assay: Growth inhibition of human NCI-H226 cells assessed as cell growth at 10 uM incubated for 48 hrs by sulforhodamine B assay relative to control
Format: functional
Conditions: NCI-H226, 48 h, read-out: Activity
Output yes for growth at 10 µM not less than 90%; output no otherwise.

API: above_or_equal(metric=growth at 10 µM, cutoff=90%) for item `Cc1oc2ncnc(Nc3ccccc3)c2c1C(=O)NCCO`
yes

Answer whether growth at 10 µM of `Cc1cccc(Nc2ncnc3oc(C)c(C(=O)NCCO)c23)c1` is greater than or equal to 90%.
yes

Check this compound for growth at 10 µM at or above 90%: `Cc1oc2ncnc(Nc3ccc(OCc4cccc(F)c4)c(Cl)c3)c2c1C(=O)NCCO`
no

Tell me whether growth at 10 µM is at least 90% here: `CCOC(=O)c1c(C)oc2ncnc(Nc3ccc(F)cc3)c12`
yes

Please check the record `Cc1oc2ncnc(Nc3cccc(Cl)c3)c2c1CO` and state if its growth at 10 µM is at or above 90%.
no

Decide: growth at 10 µM of `CCOC(=O)c1c(C)oc2ncnc(Nc3ccc(F)c(Cl)c3)c12` >= 90%?
yes

Kindly determine if growth at 10 µM recorded for `Cc1cccc(Nc2ncnc3oc(C)c(C(=O)NCCN4CCOCC4)c23)c1` is above or exactly 90%.
yes

Evaluate `CCOC(=O)c1c(C)oc2ncnc(Nc3ccc(OCc4ccc(Cl)cc4)cc3)c12` : growth at 10 µM at minimum 90%?
yes

Confirm if growth at 10 µM reported for the compound `CCOC(=O)c1c(C)oc2ncnc(Nc3ccc(OCc4cccc(C)c4)cc3)c12` is 90% or above.
yes

Could you tell me if the measured growth at 10 µM of `CCOC(=O)c1c(C)oc2ncnc(Nc3cccc(F)c3)c12` reaches 90% or more?
yes

Hi team, for `Cc1oc2ncnc(Nc3cccc(F)c3)c2c1C(=O)NCCO` , is the recorded growth at 10 µM at or above 90%?
yes

---

Test system: BT-549
Test: Growth inhibition of human BT549 cells assessed as cell growth at 10 uM incubated for 48 hrs by sulforhodamine B assay relative to control
Format: functional
Settings: BT-549, 48 h, read-out: Activity
For each record, check the reported growth at 10 µM: if it is below 80% write true, else write false.

Report whether reported growth at 10 µM is lower than 80% (strictly) for `CCOC(=O)c1c(C)oc2ncnc(Nc3ccc(OCc4ccc(Cl)c(Cl)c4)cc3)c12`
false

Please determine if `Cc1oc2ncnc(Nc3ccc(OCc4cccc(F)c4)c(Cl)c3)c2c1C(=O)NCCO` is below 80% in terms of growth at 10 µM.
true

Hello, is growth at 10 µM of the following compound strictly smaller than 80%? `CCOC(=O)c1c(C)oc2ncnc(Nc3ccc(OCc4ccc(Cl)cc4)cc3)c12`
false

Hi there! Is growth at 10 µM for `Cc1cccc(Nc2ncnc3oc(C)c(C(=O)NCCN4CCOCC4)c23)c1` below 80%, do you know?
false

---

Test system: TK-10
Experiment: Growth inhibition of human TK10 cells assessed as cell growth at 10 uM incubated for 48 hrs by sulforhodamine B assay relative to control
Assay type: functional
Conditions: TK-10, 48 h, read-out: Activity
PROPERTY_LABEL: growth at 10 µM (%)
Response body: numeric value in %, unit text excluded.

Worked examples, 8 compounds total:
INSERT INTO assay_data (chemical_structure, measured_on, property_label, quantitative_result) VALUES
  ('CCOC(=O)c1c(C)oc2ncnc(Nc3ccc(OCc4ccc(Cl)cc4)cc3)c12', 'TK-10', 'growth at 10 µM', 87.4),
  ('Cc1oc2ncnc(Nc3cccc(F)c3)c2c1C(=O)O', 'TK-10', 'growth at 10 µM', 105),
  ('Cc1cccc(Nc2ncnc3oc(C)c(C(=O)NCCO)c23)c1', 'TK-10', 'growth at 10 µM', 102),
  ('CCOC(=O)c1c(C)oc2ncnc(Nc3ccc(OCc4cccc(F)c4)cc3)c12', 'TK-10', 'growth at 10 µM', 82.7),
  ('CCOC(=O)c1c(C)oc2ncnc(Nc3cccc(F)c3)c12', 'TK-10', 'growth at 10 µM', 95.9),
  ('CCCNC(=O)c1c(C)oc2ncnc(Nc3cccc(Cl)c3)c12', 'TK-10', 'growth at 10 µM', 94.1),
  ('Cc1oc2ncnc(Nc3ccc(OCc4cccc(F)c4)c(Cl)c3)c2c1C(=O)NCCO', 'TK-10', 'growth at 10 µM', 74.7),
  ('Cc1cccc(Nc2ncnc3oc(C)c(C(=O)NCCN4CCOCC4)c23)c1', 'TK-10', 'growth at 10 µM', 98.7);

Memo: `Cc1oc2ncnc(Nc3ccccc3)c2c1C(=O)NCCO` , reported growth at 10 µM: 122

Form: compound = `Cc1oc2ncnc(Nc3cccc(F)c3)c2c1C(=O)NCCO` ; growth at 10 µM = 90.1

Form: compound = `Cc1oc2ncnc(Nc3cccc(Cl)c3)c2c1CO` ; growth at 10 µM = 65.2

---

// values below are reported growth at 10 µM
Tested on: SF-539
Assay: Growth inhibition of human SF539 cells assessed as cell growth at 10 uM incubated for 48 hrs by sulforhodamine B assay relative to control
Assay type: functional
Conditions: SF-539, 48 h, read-out: Activity
Quick reminder: number only, in %, skip the unit.

INSERT INTO assay_data (chemical_structure, measured_on, property_label, quantitative_result) VALUES
  ('Cc1oc2ncnc(Nc3cccc(F)c3)c2c1C(=O)NCCO', 'SF-539', 'growth at 10 µM', 90.9),
  ('Cc1cccc(Nc2ncnc3oc(C)c(C(=O)NCCO)c23)c1', 'SF-539', 'growth at 10 µM', 92.5),
  ('CCOC(=O)c1c(C)oc2ncnc(Nc3cccc(F)c3)c12', 'SF-539', 'growth at 10 µM', 99.4);

Below: the item to evaluate.
Summary for this compound, `Cc1oc2ncnc(Nc3ccc(OCc4cccc(F)c4)c(Cl)c3)c2c1C(=O)NCCO` : growth at 10 µM is 47.4

---

Test system: DU-145
Assay: Growth inhibition of human DU145 cells assessed as cell growth at 10 uM incubated for 48 hrs by sulforhodamine B assay relative to control
Assay type: functional
Settings: DU-145, 48 h, read-out: Activity
PROPERTY_LABEL: growth at 10 µM (%)
Provide the reading as a plain figure in %.

Query `Cc1oc2ncnc(Nc3ccc(OCc4cccc(F)c4)c(Cl)c3)c2c1C(=O)NCCO` yields growth at 10 µM of 61.7

---

Tested on: HOP-92
Assay: Growth inhibition of human HOP92 cells assessed as cell growth at 10 uM incubated for 48 hrs by sulforhodamine B assay relative to control
Format: functional
Conditions: HOP-92, 48 h, read-out: Activity
PROPERTY_LABEL: growth at 10 µM

INSERT INTO assay_data (chemical_structure, result) VALUES
  ('CCOC(=O)c1c(C)oc2ncnc(Nc3ccc(OCc4ccc(Cl)cc4)cc3)c12', '107%'),
  ('CCOC(=O)c1c(C)oc2ncnc(Nc3ccc(OCc4ccc(Cl)c(Cl)c4)cc3)c12', '116%'),
  ('CCOC(=O)c1c(C)oc2ncnc(Nc3ccc(F)cc3)c12', '90.8%'),
  ('Cc1oc2ncnc(Nc3cccc(F)c3)c2c1C(=O)NCCO', '101%');

Record summary for `CCOC(=O)c1c(C)oc2ncnc(Nc3ccc(OCc4cccc(C)c4)cc3)c12` : reported growth at 10 µM = 104%

// growth at 10 µM value for `Cc1oc2ncnc(Nc3ccccc3)c2c1C(=O)NCCO` : 88.6%

---

System: COLO 205
Experiment: Growth inhibition of human COLO205 cells assessed as cell growth at 10 uM incubated for 48 hrs by sulforhodamine B assay relative to control
Assay type: functional
Conditions: COLO 205, 48 h, read-out: Activity
Overview of reported growth at 10 µM across a group of compounds:
Give your result in % as a bare value.

Example cases with answers are listed next.
INSERT INTO measurements (chemical_structure, property_label, quantitative_result) VALUES
  ('Cc1cccc(Nc2ncnc3oc(C)c(C(=O)NCCO)c23)c1', 'growth at 10 µM', 99),
  ('Cc1cccc(Nc2ncnc3oc(C)c(C(=O)NCCN4CCOCC4)c23)c1', 'growth at 10 µM', 101),
  ('CCOC(=O)c1c(C)oc2ncnc(Nc3ccc(OCc4ccc(Cl)c(Cl)c4)cc3)c12', 'growth at 10 µM', 111),
  ('CCOC(=O)c1c(C)oc2ncnc(Nc3ccc(OCc4cccc(F)c4)cc3)c12', 'growth at 10 µM', 84.2);

Okay, next one:
// growth at 10 µM lookup, compound = `CCOC(=O)c1c(C)oc2ncnc(Nc3ccc(F)cc3)c12` , result: 102

---

Tested on: SK-MEL-5
Test: Growth inhibition of human SK-MEL-5 cells assessed as cell growth at 10 uM incubated for 48 hrs by sulforhodamine B assay relative to control
Assay type: functional
Details: SK-MEL-5, 48 h, read-out: Activity
PROPERTY_LABEL: growth at 10 µM (%)
A number alone suffices; assume %.

Before answering, review these 5 worked examples.
INSERT INTO measurements (chemical_structure, measured_on, property_label, quantitative_result) VALUES
  ('CCOC(=O)c1c(C)oc2ncnc(Nc3ccc(F)c(Cl)c3)c12', 'SK-MEL-5', 'growth at 10 µM', 94.5),
  ('CCOC(=O)c1c(C)oc2ncnc(Nc3cccc(F)c3)c12', 'SK-MEL-5', 'growth at 10 µM', 99),
  ('CCOC(=O)c1c(C)oc2ncnc(Nc3ccc(OCc4cccc(C)c4)cc3)c12', 'SK-MEL-5', 'growth at 10 µM', 99.2),
  ('Cc1cccc(Nc2ncnc3oc(C)c(C(=O)NCCN4CCOCC4)c23)c1', 'SK-MEL-5', 'growth at 10 µM', 96.9),
  ('Cc1oc2ncnc(Nc3cccc(F)c3)c2c1C(=O)O', 'SK-MEL-5', 'growth at 10 µM', 99.6);

`CCOC(=O)c1c(C)oc2ncnc(Nc3ccc(OCc4ccc(Cl)cc4)cc3)c12` yielded growth at 10 µM of 95.8

The molecule listed as `Cc1oc2ncnc(Nc3cccc(F)c3)c2c1C(=O)NCCO` has a reported growth at 10 µM of 102

What the record says about `CCOC(=O)c1c(C)oc2ncnc(Nc3ccc(OCc4cccc(F)c4)cc3)c12` : growth at 10 µM is 93.4

Notebook: `CCOC(=O)c1c(C)oc2ncnc(Nc3ccc(OCc4ccc(Cl)c(Cl)c4)cc3)c12` , growth at 10 µM read as 103
